Where these numbers come from: patent EP2886531B1

- assay_overview: Prolonged piperidine treatment of VKDRYI peptide resin (aspartimide formation, Asp-Arg motif)
- Format: physicochemical
- experimental_setup: VKDRYI
observable: Asu per 10' cycle

Examples with answers:
CCC(C)(CC)OC(=O)C[C@H](NC(=O)OCC1c2ccccc2-c2ccccc21)C(=O)O [Mpe, Fmoc-Asp(OMpe)-OH, reference compound] = 0.4
CCC(CC)(CC)OC(=O)C[C@H](NC(=O)OCC1c2ccccc2-c2ccccc21)C(=O)O = 0.1
CCCC(CCC)(CCC)OC(=O)C[C@H](NC(=O)OCC1c2ccccc2-c2ccccc21)C(=O)O = 0.08

A = CCCCC(CCCC)(CCCC)OC(=O)C[C@H](NC(=O)OCC1c2ccccc2-c2ccccc21)C(=O)O
B = CC(C)(C)OC(=O)C[C@H](NC(=O)OCC1c2ccccc2-c2ccccc21)C(=O)O [tBu, Fmoc-Asp(OtBu)-OH, reference compound]
Pick one, A or B : lowest reported Asu per 10' cycle. // respond with label for picked entry
A
